# target-or-test-system: GlcNAc(b1-3)Gal(b1-4)GlcNAc(b1-3)Gal(b1-4)GlcNAc(b1-3)Gal(b1-4)GlcNAc(b1-3)Gal(b1-4)GlcNAc(b1-2)Man(a1-3)[GlcNAc(b1-3)Gal(b1-4)GlcNAc(b1-3)Gal(b1-4)GlcNAc(b1-3)Gal(b1-4)GlcNAc(b1-3)Gal(b1-4)GlcNAc(b1-2)Man(a1-6)]Man(b1-4)GlcNAc(b1-4)[Fuc(a1-6)]GlcNAc
# assay-method-text: glycan array binding signal (z-score within array); higher = stronger binding
# recorded-conditions: glycan notation: IUPAC condensed, linker removed
Only a selection was taken, and the strongest signals are over-represented in it overall.
Provide the reported glycan array binding signal (z-score) of each item.

glycan array binding signal (z-score) reported for this binder ECA (Erythrina cristagalli), P83410 (protein) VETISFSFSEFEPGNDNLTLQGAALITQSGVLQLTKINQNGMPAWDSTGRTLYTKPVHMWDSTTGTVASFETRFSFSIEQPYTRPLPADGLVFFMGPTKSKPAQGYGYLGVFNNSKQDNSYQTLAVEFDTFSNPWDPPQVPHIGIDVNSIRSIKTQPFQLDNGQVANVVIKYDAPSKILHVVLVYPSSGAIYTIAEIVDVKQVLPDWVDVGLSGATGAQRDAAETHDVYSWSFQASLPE : 0.151

Noted for DC-ASGPR Long (Homo sapiens) (protein) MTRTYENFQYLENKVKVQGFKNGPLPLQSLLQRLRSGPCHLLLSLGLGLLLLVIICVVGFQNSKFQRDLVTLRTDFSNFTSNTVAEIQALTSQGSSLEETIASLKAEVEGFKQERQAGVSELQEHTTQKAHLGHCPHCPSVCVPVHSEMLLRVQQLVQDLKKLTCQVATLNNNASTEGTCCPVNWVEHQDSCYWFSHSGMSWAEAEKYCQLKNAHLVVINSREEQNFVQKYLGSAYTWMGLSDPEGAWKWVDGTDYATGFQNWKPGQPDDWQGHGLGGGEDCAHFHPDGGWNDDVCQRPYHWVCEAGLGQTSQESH : its glycan array binding signal (z-score) reads 1.61
